B1: library; a variant is named by its letters at N, in order (parent)
chain: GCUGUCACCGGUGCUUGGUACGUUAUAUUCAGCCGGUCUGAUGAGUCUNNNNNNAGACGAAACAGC

- Variants of: B1
- protocol.summary: normalized RNA/DNA level with ligand (relative to sTRSVctl = 100) (log10 (% of sTRSVctl)); HEK293T overexpressing SLC46A1; ligand concentration (+) RNA-Seq: 6 mM; higher = less ribozyme self-cleavage, higher mRNA level
- condition.notes: with (6R,S)-folinic acid; ligand present: yes
Let's look at some variants and their measured normalized RNA/DNA level with ligand (log10).
value.kind: normalized RNA/DNA level with ligand (log10)

sequence.variant | recorded.number
CCAUAC | 1.96
GUGCGU | 2.01
GGAAUA | 2.04
AUUAUA | 1.97
CCAAGA | 2.04
CGGCAG | 2.01
GCUUAU | 2
AUUCCC | 1.99
UCACUU | 2.04
ACACGG | 2.02
UUGAUU | 2.03
UGAAGU | 2.01
UCUCGA | 2.03
GGUCGU | 2.03
AUGGAA | 1.99
GCCUUA | 1.99
UUAGAG | 1.95
AGCGCG | 2
GGACAG | 1.99
UCCUCU | 2.04
AUACGG | 1.98
AACGGC | 2.03
CUCAGG | 2.03
ACGAGU | 2.03
GCAAGG | 2.04
GGGGCA | 2.02
GCUCAC | 2.03
UGACCG | 2.01
CCCACG | 2.03
UUUGAG | 1.98
CGAGCC | 2.03
GAACCC | 2.02
